Target: T1, human SIRPγ-His monomer protein (human, UniProt Q9P1W8 29-360)
T1 construct: also called hSIRPγ
T1 sequence (Q9P1W8 29-360 limits assumed): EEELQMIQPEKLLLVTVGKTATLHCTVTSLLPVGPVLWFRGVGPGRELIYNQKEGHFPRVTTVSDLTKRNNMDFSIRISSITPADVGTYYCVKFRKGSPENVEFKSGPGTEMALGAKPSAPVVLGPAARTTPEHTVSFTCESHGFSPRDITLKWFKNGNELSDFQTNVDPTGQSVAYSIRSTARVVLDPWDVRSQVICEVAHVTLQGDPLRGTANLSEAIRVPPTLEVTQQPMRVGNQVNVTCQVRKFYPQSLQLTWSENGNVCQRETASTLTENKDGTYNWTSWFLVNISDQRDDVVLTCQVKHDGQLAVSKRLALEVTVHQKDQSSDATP
Assay: BLI Octet, V5-scFv PPE captured, SIRP-His 500 nM
kdis overview

Antibody 47 (scFv, V domains shown, scFv in crude PPE, V5/myc-tagged) VH: QVQLVQSGAEVKKPGASVKVSCKASGYTFTTYGISWVRQAPGQGLEWMGWMDPNSGSTGYAQKFQGRVTMTRDTSTSTVYMELSSLRSEDTAVYYCARGRGNSYYYYYMDVWGKGTTVTVSS VL: DIQMTQSPSSLSASVGDRVTITCRASQRIGSYLNWYQQKPGKAPKLLIYGASNLQSGVPSRFSGSGSGTDFTLTISSLQPEDFATYYCQQANSFPFTFGPGTKVDIK
> 0.01 s⁻¹
Antibody 52 (scFv, V domains shown, scFv in crude PPE, V5/myc-tagged) VH: QVQLVQSGAEVKKPGASVKVSCKASGYTFTSYDINWVRQAPGQGLEWMGWISGYNGNTNYAQKFQGRVTMTRDTSTSTVYMELSSLRSEDTAVYYCARSFDWLLLLDYWGQGTLVTVSS VL: DIQMTQSPSSLSASVGDRVTITCRASQSISSWLAWYQQKPGKAPKLLIYDATTLESGVPSRFSGSGSGTDFTLTISSLQPEDFATYYCQQYDSYPWTFGQGTKLEIK
> 0.01 s⁻¹
Antibody 21 (scFv, V domains shown, scFv in crude PPE, V5/myc-tagged) VH: EVQLLESGGGLVQPGGSLRLSCAASGFTLGSYWMHWVRQAPGKGLEWVSLISWDGGSTYYADSVKGRFTISRDNSKNTLYLQMNSLRAEDTAVYYCAKGPWVGYSGYDLNYYYYGMDVWGQGTTVTVSS VL: DIQMTQSPSSLSASVGDRVTITCRASQDIRRALAWYQQKPGKAPKLLIYAASSLQSGVPSRFSGSGSGTDFTLTISSLQPEDFATYYCLQHNSYPPTFGQGTKLEIK
0.001 to 0.01 s⁻¹
Antibody 34 (scFv, V domains shown, scFv in crude PPE, V5/myc-tagged) VH: QVQLVQSGAEVKKPGASVKVSCKASGYTFSNYYMHWVRQAPGQGLEWMGWMNPNSGNTGYAQKFQGRVTMTRDTSTSTVYMELSSLRSEDTAVYYCARASMYSSSGFDYWGQGTLVTVSS VL: DIVMTQSPLSLPVTPGEPASISCRSSQSLLHSNGYNYLDWYLQKPGQSPQLLIYLASTRAPGVPDRFSGSGSGTDFTLKISRVEAEDVGVYYCMQGSHWPPSFGQGTRLEIK
0.001 to 0.01 s⁻¹

# input for lookup
Could you tell me which kdis is on file for Antibody 23 (scFv, V domains shown, scFv in crude PPE, V5/myc-tagged) VH: QVQLVQSGAEVKKPGASVKVSCKASGGTFSNYDINWVRQAPGQGLEWMGWISAYNGNTNYAQKLQGRVTMTRDTSTSTVYMELSSLRSEDTAVYYCAAEAYGDYSLDPWGQGTLVTVSS VL: DIQMTQSPSSLSASVGDRVTITCQASQGISSYLNWYQQKPGKAPKLLIYAASSLQNGVPSRFSGSGSGTDFTLTISSLQPEDFATYYCQQSYSTPITFGQGTRLEIK ? 0.001 to 0.01 s⁻¹
